target: Factor X (FX), P00742
Sequence (P00742 whole entry, looked up): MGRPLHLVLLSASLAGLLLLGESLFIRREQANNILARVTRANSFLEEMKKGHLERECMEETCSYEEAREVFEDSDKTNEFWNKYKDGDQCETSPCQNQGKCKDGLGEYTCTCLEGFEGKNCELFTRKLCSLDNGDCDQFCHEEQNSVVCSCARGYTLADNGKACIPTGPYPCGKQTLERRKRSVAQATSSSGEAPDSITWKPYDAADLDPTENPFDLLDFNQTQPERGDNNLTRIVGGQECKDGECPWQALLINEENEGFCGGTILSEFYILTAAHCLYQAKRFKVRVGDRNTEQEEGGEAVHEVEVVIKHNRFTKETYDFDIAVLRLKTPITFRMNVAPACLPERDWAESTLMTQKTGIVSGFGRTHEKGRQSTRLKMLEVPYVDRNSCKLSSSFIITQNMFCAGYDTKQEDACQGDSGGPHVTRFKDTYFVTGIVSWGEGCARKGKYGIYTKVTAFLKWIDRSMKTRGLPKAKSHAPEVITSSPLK
Recorded metric: kcat of FX activation by FIXa in the Xase complex (FVIIIa, PC/PS vesicles, Ca2+) (s⁻¹)
Give bare numbers, in s⁻¹.

-- ask What does the record list as kcat of FX activation by FIXa in the Xase complex (FVIIIa, PC/PS vesicles, Ca2+) for FIXa-R318Y/R338E/T343R/N346Y/R403E/E410N (protein) chain 1: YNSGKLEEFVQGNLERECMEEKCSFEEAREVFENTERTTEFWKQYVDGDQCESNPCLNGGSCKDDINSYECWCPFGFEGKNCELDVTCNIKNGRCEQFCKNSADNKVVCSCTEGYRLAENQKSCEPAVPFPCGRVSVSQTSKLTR chain 2: VVGGEDAKPGQFPWQVVLNGKVDAFCGGSIVNEKWIVTAAHCVETGVKITVVAGEHNIEETEHTEQKRNVIRIIPHHNYNAAINKYNHDIALLELDEPLVLNSYVTPICIADKEYTNIFLKFGSGYVSGWGRVFHKGYSALVLQYLRVPLVDRATCLESTKFRIYYNMFCAGFHEGGRDSCQGDSGGPHVTEVEGTSFLTGIISWGEECAMKGKYGIYTKVSEYVNWIKNKTKLT ?
-- reply 4.6

Further cases:
-- ask Report kcat of FX activation by FIXa in the Xase complex (FVIIIa, PC/PS vesicles, Ca2+) for FIXa-Y155F/R318Y/R338E/T343R/R403E (protein) chain 1: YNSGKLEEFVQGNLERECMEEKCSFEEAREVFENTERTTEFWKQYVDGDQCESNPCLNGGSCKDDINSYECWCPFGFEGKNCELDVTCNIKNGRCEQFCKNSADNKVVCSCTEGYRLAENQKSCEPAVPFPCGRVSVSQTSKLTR chain 2: VVGGEDAKPGQFPWQVVLNGKVDAFCGGSIVNEKWIVTAAHCVETGVKITVVAGEHNIEETEHTEQKRNVIRIIPHHNYNAAINKYNHDIALLELDEPLVLNSYVTPICIADKEYTNIFLKFGSGYVSGWGRVFHKGYSALVLQYLRVPLVDRATCLESTKFRIYNNMFCAGFHEGGRDSCQGDSGGPHVTEVEGTSFLTGIISWGEECAMKGKYGIYTKVSEYVNWIKEKTKLT please.
-- reply 8.2

# credit: patent US20210230570
